- METHOD DESCRIPTION: Coadministration of AEG and antibiotic PS-5: plasma concentration of antibiotic PS-5
- Format: in vivo, mice (male, ddY)
- ASSAY CONDITIONS: mouse, plasma, sc, 2 mg, Control group (water, PS-5 s.c.); 15 min
VALUE TYPE: concentration at 0.25 h (ng/mL)
The answer is to be given in ng/mL; state only the numeric part.

Ask: Any idea what concentration at 0.25 h was measured for CC[C@H]1C(=O)N2C(C(=O)O)=C(SCCNC(C)=O)C[C@H]12 [antibiotic PS-5] ?
Reply: 15200

* * *

- METHOD DESCRIPTION: Coadministration of AEG and antibiotic PS-5: plasma concentration of antibiotic PS-5
- Format: in vivo, mice (male, ddY)
- ASSAY CONDITIONS: mouse, plasma, sc, 2 mg, Control group (water, PS-5 s.c.); 5 min
VALUE TYPE: concentration at 5 min (µg/mL)
Report the value in µg/mL with no unit label.

Ask: Name the reported concentration at 5 min value associated with the compound CC[C@H]1C(=O)N2C(C(=O)O)=C(SCCNC(C)=O)C[C@H]12 [antibiotic PS-5]
Reply: 52

* * *

- TESTED SYSTEM: dipeptidase (Rattus norvegicus, UniProt P31430)
- Sequence (P31430 17-410): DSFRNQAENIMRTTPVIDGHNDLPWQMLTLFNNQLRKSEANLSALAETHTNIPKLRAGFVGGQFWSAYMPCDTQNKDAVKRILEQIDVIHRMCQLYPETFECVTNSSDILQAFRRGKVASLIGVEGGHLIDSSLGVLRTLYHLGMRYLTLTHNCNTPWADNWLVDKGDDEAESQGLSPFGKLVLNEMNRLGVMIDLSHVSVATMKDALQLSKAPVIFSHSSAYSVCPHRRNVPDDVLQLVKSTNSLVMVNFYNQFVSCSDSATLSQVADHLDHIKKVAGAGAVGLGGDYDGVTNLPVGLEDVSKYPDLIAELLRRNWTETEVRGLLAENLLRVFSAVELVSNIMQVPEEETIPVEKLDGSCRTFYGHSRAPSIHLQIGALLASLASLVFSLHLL
VALUE TYPE: pIC50
The quantity pIC50 is defined as the negative base-10 logarithm of the molar concentration.

Ask: Form field: reported pIC50 of N[C@H](CNCC(=O)O)Cc1ccccc1 [Compound 5, (S)-[N-(2-amino-2-benzyl)ethyl]glycine]
Reply: 4.66

* * *

- METHOD DESCRIPTION: Coadministration of AEG and antibiotic PS-5: plasma concentration of antibiotic PS-5
- Type: in vivo, mice (male, ddY)
- ASSAY CONDITIONS: mouse, plasma, sc, 2 mg, AEG administered group; 5 min after PS-5 s.c.
VALUE TYPE: concentration at 5 min (ng/mL)
Respond with the bare value in ng/mL.

Ask: May I ask what concentration at 5 min has been recorded for CC[C@H]1C(=O)N2C(C(=O)O)=C(SCCNC(C)=O)C[C@H]12 [antibiotic PS-5] ?
Reply: 49600

* * *

- METHOD DESCRIPTION: Coadministration of AEG and antibiotic PS-5: urinary recovery of antibiotic PS-5
- Assay type: in vivo, mice (male, ddY)
- ASSAY CONDITIONS: mouse, urine, sc, 2 mg, AEG administered group (AEG 20 mg/mouse oral, PS-5 s.c.); 0-3 hrs
VALUE TYPE: dose excreted at 3 h (%)
Dear colleague, please return just the value in %, with no unit written.

Ask: What value of dose excreted at 3 h has been reported for the following molecule? CC[C@H]1C(=O)N2C(C(=O)O)=C(SCCNC(C)=O)C[C@H]12 [antibiotic PS-5]
Reply: 13.2

* * *

- METHOD DESCRIPTION: Coadministration of AEG and antibiotic PS-5: plasma concentration of antibiotic PS-5
- Format: in vivo, mice (male, ddY)
- ASSAY CONDITIONS: mouse, plasma, sc, 2 mg, AEG administered group; 15 min after PS-5 s.c.
VALUE TYPE: concentration at 0.25 h

Ask: Which concentration at 0.25 h reading was recorded for the compound CC[C@H]1C(=O)N2C(C(=O)O)=C(SCCNC(C)=O)C[C@H]12 [antibiotic PS-5] ?
Reply: 21700 ng/mL
